Source: the supplement of paper PMC4466140

Target: ScMyo5
Test: SPOT peptide array binding signal intensity (averaged, normalized) (arbitrary units (background-subtracted, floor 0; scale differs between SH3 domains)); higher = stronger binding of the SH3 domain to the peptide
Note to self: values exactly at 6 are Y. So SPOT peptide array binding signal intensity at or above 6 is Y, below is N.

DHPKGPPPPPPPDEK    Y
RRGPAPPPPPRASRP    Y
VQPTAAPATPPRHIS    N
ITHRLRISIPGITGR    N
AHFQPQRTAPKPPIS    Y
NPLPKEPRLPKRKVA    N

Lookup: Does the reported SPOT peptide array binding signal intensity for `STKKPRPPVKSKPKH` fall at or above the 6 mark?
Found: N

Lookup: Does the reported SPOT peptide array binding signal intensity for `MARRRLPDRPPNGIG` fall at or above the 6 mark?
Found: N

Lookup: Does the reported SPOT peptide array binding signal intensity for `RKQRSIPLSPIVPES` fall at or above the 6 mark?
Found: Y

Lookup: Does the reported SPOT peptide array binding signal intensity for `QLMKNLPKIPLLNDI` fall at or above the 6 mark?
Found: N

Lookup: Does the reported SPOT peptide array binding signal intensity for `NILKRRPLKLEAPSK` fall at or above the 6 mark?
Found: N

Lookup: Does the reported SPOT peptide array binding signal intensity for `PPIPNAPLSPAPAVP` fall at or above the 6 mark?
Found: Y

Lookup: Does the reported SPOT peptide array binding signal intensity for `KRNRLKILLPFLEQS` fall at or above the 6 mark?
Found: N

Lookup: Does the reported SPOT peptide array binding signal intensity for `NSVPIMPTLPPRPYI` fall at or above the 6 mark?
Found: Y
